Molecular target: Protein deacetylase HDAC6 (Homo sapiens, UniProt Q9UBN7)
Assay: Inhibition of human recombinant HDAC6 using RHKKAcAMC as substrate by fluorescence assay
pIC50: −log10 of the molar value.
measured property: pIC50

Here are 4 molecules together with their reported answers.
CCCN1CC(=O)N2[C@H](Cc3c(n(Cc4ccc(C(=O)NO)cc4)c4ccccc34)[C@H]2C)C1=O = 7.73
CCCN1CC(=O)N2[C@H](C)c3c(c4ccccc4n3Cc3ccc(C(=O)NO)cc3)C[C@H]2C1=O = 7.22
CC(C)CN1CC(=O)N2Cc3c(c4ccccc4n3Cc3ccc(C(=O)NO)cc3)CC2C1=O (stereo not drawn) = 8.42
CCCN1C(=O)C2Cc3c(n(Cc4ccc(C(=O)NO)cc4)c4ccccc34)CN2C1=O (stereo not drawn) = 8.00

[P] CN1CC(=O)N2Cc3c(c4ccccc4n3Cc3ccc(C(=O)NO)cc3)CC2C1=O (stereo not drawn)
[Q] CN1C(=O)C2Cc3c(n(Cc4ccc(C(=O)NO)cc4)c4ccccc34)CN2C1=O (stereo not drawn)
Challenge: Which one would you say has the larger pIC50 value: P , or Q ? State the label of the item chosen.
Response given: Q
(Q: 8.62, P: 7.87)

[1] CCCCN1C(=O)C2Cc3c(n(Cc4ccc(C(=O)NO)cc4)c4ccccc34)CN2C1=O (stereo not drawn)
[2] CC(C)CCN1CC(=O)N2Cc3c(c4ccccc4n3Cc3ccc(C(=O)NO)cc3)CC2C1=O (stereo not drawn)
Challenge: Sorting ascending by pIC50, which comes first: 1 or 2 ? State the label of the item chosen.
Response given: 2
(2: 7.62, 1: 8.03)

====

Target: Polyamine deacetylase HDAC10 (Homo sapiens, UniProt Q969S8)
Sequence (Q969S8 whole entry): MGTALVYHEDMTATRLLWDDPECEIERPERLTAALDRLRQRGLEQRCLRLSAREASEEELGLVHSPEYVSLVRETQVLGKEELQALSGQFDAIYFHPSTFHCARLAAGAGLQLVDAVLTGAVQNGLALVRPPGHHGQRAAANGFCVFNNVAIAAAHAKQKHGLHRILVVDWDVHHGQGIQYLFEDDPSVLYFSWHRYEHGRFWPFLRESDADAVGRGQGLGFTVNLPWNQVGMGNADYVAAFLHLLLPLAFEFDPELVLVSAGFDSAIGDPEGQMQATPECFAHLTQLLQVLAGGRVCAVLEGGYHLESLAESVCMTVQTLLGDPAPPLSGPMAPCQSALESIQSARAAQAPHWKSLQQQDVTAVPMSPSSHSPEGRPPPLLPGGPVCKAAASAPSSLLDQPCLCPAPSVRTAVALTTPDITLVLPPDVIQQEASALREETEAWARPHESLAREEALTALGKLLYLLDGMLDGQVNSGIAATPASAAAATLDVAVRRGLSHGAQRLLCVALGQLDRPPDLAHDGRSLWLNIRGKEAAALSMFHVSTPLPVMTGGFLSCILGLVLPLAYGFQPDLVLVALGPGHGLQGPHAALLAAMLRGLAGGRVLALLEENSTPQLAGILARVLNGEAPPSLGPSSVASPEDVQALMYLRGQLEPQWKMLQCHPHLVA
Experiment: Inhibition of human recombinant HDAC10 using RHKKAcAMC as substrate by fluorescence assay
measured property: IC50 (µM)

[P] CCCN1CC(=O)N2Cc3c(c4ccccc4n3Cc3ccc(C(=O)NO)cc3)CC2C1=O (configuration not stated)
[Q] CCCN1CC(=O)N2[C@H](Cc3c(n(Cc4ccc(C(=O)NO)cc4)c4ccccc34)[C@@H]2C)C1=O
Challenge: Compare the recorded IC50 of P and Q ; state which is larger. // respond with label for picked entry
Response given: P
(P: 39.5 µM, Q: 1.51 µM)

====

Target: Protein deacetylase HDAC6 (Homo sapiens)
Sequence (Q9UBN7 whole entry): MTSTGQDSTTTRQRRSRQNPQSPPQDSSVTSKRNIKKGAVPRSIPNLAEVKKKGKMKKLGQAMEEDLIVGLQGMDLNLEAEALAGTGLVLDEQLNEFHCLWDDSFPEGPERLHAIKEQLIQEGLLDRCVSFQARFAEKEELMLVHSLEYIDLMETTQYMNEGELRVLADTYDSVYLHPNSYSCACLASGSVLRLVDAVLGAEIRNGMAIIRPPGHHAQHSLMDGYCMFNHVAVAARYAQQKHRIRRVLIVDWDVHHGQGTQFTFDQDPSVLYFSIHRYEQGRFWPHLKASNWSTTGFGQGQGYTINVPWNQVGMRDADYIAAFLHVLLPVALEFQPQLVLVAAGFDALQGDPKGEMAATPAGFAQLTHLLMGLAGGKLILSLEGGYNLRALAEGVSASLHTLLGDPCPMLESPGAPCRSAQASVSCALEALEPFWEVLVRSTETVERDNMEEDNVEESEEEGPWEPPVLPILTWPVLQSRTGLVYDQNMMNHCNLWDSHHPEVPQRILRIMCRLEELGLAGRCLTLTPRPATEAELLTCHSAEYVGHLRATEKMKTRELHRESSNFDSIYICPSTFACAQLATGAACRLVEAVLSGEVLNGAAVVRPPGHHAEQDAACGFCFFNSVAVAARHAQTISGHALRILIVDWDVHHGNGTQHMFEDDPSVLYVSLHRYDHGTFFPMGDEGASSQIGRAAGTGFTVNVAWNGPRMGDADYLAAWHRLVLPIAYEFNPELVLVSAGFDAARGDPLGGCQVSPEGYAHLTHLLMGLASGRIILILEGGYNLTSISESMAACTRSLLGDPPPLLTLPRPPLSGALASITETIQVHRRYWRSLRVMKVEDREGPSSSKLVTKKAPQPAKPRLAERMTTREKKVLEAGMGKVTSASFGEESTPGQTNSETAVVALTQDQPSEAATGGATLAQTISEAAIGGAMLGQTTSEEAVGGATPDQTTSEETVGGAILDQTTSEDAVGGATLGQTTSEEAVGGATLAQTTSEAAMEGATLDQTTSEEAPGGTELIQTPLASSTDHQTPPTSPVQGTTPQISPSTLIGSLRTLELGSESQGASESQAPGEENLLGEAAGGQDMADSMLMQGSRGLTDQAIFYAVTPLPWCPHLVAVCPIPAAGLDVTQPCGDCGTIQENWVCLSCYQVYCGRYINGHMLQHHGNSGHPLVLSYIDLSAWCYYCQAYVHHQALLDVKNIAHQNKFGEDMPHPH
Assay: Inhibition of human recombinant HDAC6 using RHKKAcAMC as substrate by fluorescence assay
pIC50: −log10 of the molar value.
measured property: pIC50

CCN1C(=O)C2Cc3c(n(Cc4ccc(C(=O)NO)cc4)c4ccccc34)CN2C1=O (centres undefined) = 8.34
CCCN1CC(=O)N2Cc3c(c4cc(OCc5ccccc5)ccc4n3Cc3ccc(C(=O)NO)cc3)CC2C1=O (centres undefined) = 8.90
CCCN1CC(=O)N2[C@@H](Cc3c(n(Cc4ccc(C(=O)NO)cc4)c4ccccc34)[C@@H]2C)C1=O = 7.08
CCCN1CC(=O)N2[C@H](Cc3c(n(Cc4ccc(C(=O)NO)cc4)c4ccccc34)[C@@H]2C)C1=O = 8.74
CCCN1CC(=O)N2Cc3c(c4ccccc4n3Cc3ccc(C(=O)NO)cc3)CC2C1=O (centres undefined) = 8.43

[A] CCCN1CC(=O)N2Cc3c(c4cc(OC)ccc4n3Cc3ccc(C(=O)NO)cc3)CC2C1=O (centres undefined)
[B] CCCN1CC(=O)N2Cc3c(c4cc(O)ccc4n3Cc3ccc(C(=O)NO)cc3)CC2C1=O (centres undefined)
[C] CCN1CC(=O)N2Cc3c(c4ccccc4n3Cc3ccc(C(=O)NO)cc3)CC2C1=O (centres undefined)
[D] CCCCN1CC(=O)N2Cc3c(c4ccccc4n3Cc3ccc(C(=O)NO)cc3)CC2C1=O (centres undefined)
Challenge: # sort list by recorded pIC50, greatest to least List the labels according to the requested ordering.
Response given: B, A, D, C
(B: 9.05, A: 8.78, D: 8.49, C: 8.10)
